tested on: BaF3; experiment: Growth inhibition of mouse BaF3 cells harboring RET V804M mutant incubated for 3 days by MTT assay; assay type: functional; settings: BaF3, 72 h, time 3 day
outcomeMeasure: GI50

# sampleSmiles, outcomeMeasure, result
records = [
    ("COc1cc2/c(=N/c3ccc(Br)cc3F)nc[nH]c2cc1OCC1CCN(C)CC1", "GI50", "> 10 µM"),
    ("O=C(Nc1ccc(Cl)cc1)Nc1ccc(Nc2ncnc3c2OCCN3)cc1", "GI50", "> 10 µM"),
    ("COc1ccc(NC(=O)Nc2ccc(Nc3ncnc4c3OCCN4)cc2)cc1", "GI50", "> 10 µM"),
    ("CC(C)(C)c1cc(NC(=O)Nc2ccc(Nc3ncnc4c3OCCN4)c(O)c2)no1", "GI50", "1.87 µM"),
    ("Cc1cc(C)cc(NC(=O)Nc2ccc(Nc3ncnc4c3OCCN4)cc2)c1", "GI50", "> 10 µM"),
]

* * *

target: Mitogen-activated protein kinase kinase kinase 20 (Homo sapiens); assay: Inhibition of recombinant full-length human ZAK using MBP as substrate incubated for 40 mins in presence of [gamma33P]ATP by scintillation counting based radiometry assay
pIC50: −log10 of the molar value.

# sampleSmiles, pIC50
measured = [
    ("CC(C)(C)c1cc(NC(=O)Nc2ccc(Nc3ncnc4c3OCCCN4)cc2)no1", 7.72),
]

* * *

Molecular target: Tyrosine-protein kinase Mer (Homo sapiens, UniProt Q12866)
Sequence (Q12866 whole entry): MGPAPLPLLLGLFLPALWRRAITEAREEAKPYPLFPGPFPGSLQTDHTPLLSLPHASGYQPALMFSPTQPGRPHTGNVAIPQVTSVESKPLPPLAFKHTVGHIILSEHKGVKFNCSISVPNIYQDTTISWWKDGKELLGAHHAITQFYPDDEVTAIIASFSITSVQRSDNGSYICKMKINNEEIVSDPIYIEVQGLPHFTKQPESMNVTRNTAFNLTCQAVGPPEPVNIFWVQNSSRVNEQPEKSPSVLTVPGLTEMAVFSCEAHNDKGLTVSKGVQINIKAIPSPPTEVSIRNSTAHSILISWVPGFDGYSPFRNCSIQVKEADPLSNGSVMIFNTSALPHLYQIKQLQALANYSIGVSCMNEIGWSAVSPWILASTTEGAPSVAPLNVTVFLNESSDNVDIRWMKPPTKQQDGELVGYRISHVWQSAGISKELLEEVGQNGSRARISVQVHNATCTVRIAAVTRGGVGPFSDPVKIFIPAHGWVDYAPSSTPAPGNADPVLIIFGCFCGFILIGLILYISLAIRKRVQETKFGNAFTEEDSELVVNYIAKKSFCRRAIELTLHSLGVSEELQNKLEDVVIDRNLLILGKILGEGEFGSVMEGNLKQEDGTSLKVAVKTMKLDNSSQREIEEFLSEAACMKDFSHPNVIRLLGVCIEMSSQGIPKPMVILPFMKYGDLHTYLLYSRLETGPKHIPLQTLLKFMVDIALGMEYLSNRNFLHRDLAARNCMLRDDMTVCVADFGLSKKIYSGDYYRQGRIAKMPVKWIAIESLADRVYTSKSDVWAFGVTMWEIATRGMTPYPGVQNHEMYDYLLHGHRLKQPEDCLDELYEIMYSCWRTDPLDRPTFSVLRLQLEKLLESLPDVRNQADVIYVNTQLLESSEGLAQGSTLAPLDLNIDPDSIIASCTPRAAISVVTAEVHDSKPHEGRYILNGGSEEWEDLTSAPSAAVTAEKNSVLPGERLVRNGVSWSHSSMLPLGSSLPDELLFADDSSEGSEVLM
Assay: Inhibition of recombinant human MER (557 to 882 residues) using KKLNRTLSFAEPG as substrate incubated for 40 mins in presence of [gamma-33ATP by scintillation counting based radiometry assay

# sampleSmiles, targetUnderTest, IC50
measured = [
    ("CC(C)(C)c1cc(NC(=O)Nc2ccc(Nc3ncnc4c3OCCCN4)cc2)no1", "Tyrosine-protein kinase Mer (Homo sapiens, UniProt Q12866)", "1.49 µM"),
]

* * *

biological target: UniProtKB P07333
Sequence (P07333 whole entry): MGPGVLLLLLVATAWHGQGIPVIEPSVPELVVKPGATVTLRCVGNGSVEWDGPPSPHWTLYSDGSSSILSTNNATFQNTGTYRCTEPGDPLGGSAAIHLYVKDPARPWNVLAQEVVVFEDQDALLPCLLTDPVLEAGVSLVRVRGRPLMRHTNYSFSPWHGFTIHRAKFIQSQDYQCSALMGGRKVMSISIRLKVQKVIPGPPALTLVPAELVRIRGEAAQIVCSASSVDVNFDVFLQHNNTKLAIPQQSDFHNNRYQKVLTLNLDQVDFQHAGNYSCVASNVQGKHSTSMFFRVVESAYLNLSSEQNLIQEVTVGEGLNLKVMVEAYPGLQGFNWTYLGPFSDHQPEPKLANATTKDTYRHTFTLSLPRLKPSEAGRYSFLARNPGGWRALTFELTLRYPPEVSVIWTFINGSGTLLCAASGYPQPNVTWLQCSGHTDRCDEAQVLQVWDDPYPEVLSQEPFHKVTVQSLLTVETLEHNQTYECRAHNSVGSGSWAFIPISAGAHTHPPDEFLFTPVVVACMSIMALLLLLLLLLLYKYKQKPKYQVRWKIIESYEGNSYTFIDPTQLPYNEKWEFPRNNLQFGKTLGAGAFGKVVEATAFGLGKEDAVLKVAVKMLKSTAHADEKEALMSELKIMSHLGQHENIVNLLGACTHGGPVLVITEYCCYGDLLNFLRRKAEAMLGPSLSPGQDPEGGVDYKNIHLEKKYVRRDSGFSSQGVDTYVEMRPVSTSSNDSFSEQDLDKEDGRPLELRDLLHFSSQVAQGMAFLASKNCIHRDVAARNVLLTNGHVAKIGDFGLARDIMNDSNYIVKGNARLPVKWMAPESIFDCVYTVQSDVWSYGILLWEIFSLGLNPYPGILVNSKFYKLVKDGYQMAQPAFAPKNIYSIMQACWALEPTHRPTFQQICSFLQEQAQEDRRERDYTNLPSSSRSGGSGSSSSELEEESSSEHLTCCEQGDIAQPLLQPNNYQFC
pIC50: −log10 of the molar value.

# sampleSmiles, pIC50
measured = [
    ("CC(C)(C)c1cc(NC(=O)Nc2ccc(Nc3ncnc4c3OCCCN4)cc2)no1", 8.05),
]

* * *

molecular target: Ephrin type-B receptor 2 (Homo sapiens); test: Inhibition of recombinant human EphB2 (560 to end residues) using poly(Glu, Tyr) 4:1 as substrate incubated for 40 mins in presence of [gamma-33ATP] by scintillation counting based radiometry assay
pIC50: −log10 of the molar value.
outcomeMeasure: pIC50

# sampleSmiles, numericResult
data = [
    ("CC(C)(C)c1cc(NC(=O)Nc2ccc(Nc3ncnc4c3OCCCN4)cc2)no1", 5.96),
]

* * *

target: Ephrin type-B receptor 1 (Homo sapiens); experiment: Inhibition of recombinant human EphB1 (564 to end residues) using KVEKIGEGTYGVVYK as substrate incubated for 40 mins in presence of [gamma-33ATP] by scintillation counting based radiometry assay
outcomeMeasure: IC50 (µM)

# sampleSmiles, targetUnderTest, quantityUnit, numericResult
data = [
    ("CC(C)(C)c1cc(NC(=O)Nc2ccc(Nc3ncnc4c3OCCCN4)cc2)no1", "Ephrin type-B receptor 1 (Homo sapiens)", "µM", 0.388),
]

* * *

The following compounds have recorded IC50 on Proto-oncogene tyrosine-protein kinase receptor Ret (Homo sapiens).
Sequence (P07949 whole entry): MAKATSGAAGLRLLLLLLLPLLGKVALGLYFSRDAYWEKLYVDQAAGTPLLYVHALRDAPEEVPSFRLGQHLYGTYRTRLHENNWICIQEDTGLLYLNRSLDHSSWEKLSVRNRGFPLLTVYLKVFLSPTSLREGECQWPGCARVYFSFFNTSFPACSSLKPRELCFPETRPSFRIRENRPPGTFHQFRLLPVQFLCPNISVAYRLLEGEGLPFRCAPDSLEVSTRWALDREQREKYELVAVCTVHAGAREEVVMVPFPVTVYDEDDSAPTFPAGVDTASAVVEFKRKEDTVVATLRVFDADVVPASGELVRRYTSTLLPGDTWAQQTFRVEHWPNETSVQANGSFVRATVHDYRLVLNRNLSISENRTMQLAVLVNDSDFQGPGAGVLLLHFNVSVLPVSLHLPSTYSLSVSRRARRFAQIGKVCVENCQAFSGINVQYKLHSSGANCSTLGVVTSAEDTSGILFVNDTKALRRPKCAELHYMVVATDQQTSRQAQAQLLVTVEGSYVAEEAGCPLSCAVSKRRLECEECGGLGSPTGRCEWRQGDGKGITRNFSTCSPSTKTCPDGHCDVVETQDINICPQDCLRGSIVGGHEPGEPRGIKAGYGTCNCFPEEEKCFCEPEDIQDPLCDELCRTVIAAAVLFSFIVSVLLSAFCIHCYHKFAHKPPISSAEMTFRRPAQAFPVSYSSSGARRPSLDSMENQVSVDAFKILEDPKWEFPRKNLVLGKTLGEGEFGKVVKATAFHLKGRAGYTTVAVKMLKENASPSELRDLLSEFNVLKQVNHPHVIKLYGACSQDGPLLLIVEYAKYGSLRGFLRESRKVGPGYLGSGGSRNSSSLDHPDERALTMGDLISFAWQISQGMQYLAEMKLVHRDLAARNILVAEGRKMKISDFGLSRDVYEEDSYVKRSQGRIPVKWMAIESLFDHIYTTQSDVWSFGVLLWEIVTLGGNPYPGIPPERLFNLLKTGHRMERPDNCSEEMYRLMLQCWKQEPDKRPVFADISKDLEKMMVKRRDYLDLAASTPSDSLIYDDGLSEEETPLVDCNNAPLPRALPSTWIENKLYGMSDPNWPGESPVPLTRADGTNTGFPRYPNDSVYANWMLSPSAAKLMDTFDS
outcomeMeasure: IC50

# sampleSmiles, result
measured = [
    ("O=C(Nc1ccc(Nc2ncnc3c2OCCN3)cc1)Nc1cccs1", "> 10000 nM"),
    ("O=C(Nc1ccc(Nc2ncnc3c2OCCN3)cc1)Nc1cccc2ccccc12", "> 10000 nM"),
    ("COc1ccc(NC(=O)Nc2ccc(Nc3ncnc4c3OCCN4)cc2)cc1", "227 nM"),
    ("Cc1cc(NC(=O)Nc2cc(C(C)(C)C)on2)ccc1Nc1ncnc2c1OCCN2", "50 nM"),
    ("CC(C)(C)c1cc(NC(=O)Nc2ccc(Nc3ncnc4c3OCCN4)c(F)c2)no1", "21 nM"),
    ("Cc1ccc(F)c(NC(=O)Nc2ccc(Nc3ncnc4c3OCCN4)cc2)c1", "1470 nM"),
    ("CC(C)(C)c1cc(NC(=O)Nc2ccc(Nc3ncnc4c3OCCN4)nc2)no1", "77 nM"),
    ("O=C(Nc1ccc(Br)cc1)Nc1ccc(Nc2ncnc3c2OCCN3)cc1", "2220 nM"),
    ("COc1cccc(NC(=O)Nc2ccc(Nc3ncnc4c3OCCN4)cc2)c1", "6810 nM"),
    ("CC(C)(C)c1cc(NC(=O)Nc2ccc(Nc3ncnc4c3OCCCN4)cc2)no1", "10 nM"),
    ("CC(C)N1CCOc2c(Nc3ccc(NC(=O)Nc4cc(C(C)(C)C)on4)cc3)ncnc21", "8770 nM"),
]

* * *

target: Angiopoietin-1 receptor (Homo sapiens, UniProt Q02763); assay: Inhibition of recombinant human TIE2 (771 to end residues) using poly(Glu, Tyr) 4:1 as substrate incubated for 40 mins in presence of [gamma33P]ATP by scintillation counting based radiometry assay

# sampleSmiles, quantityUnit, IC50
rows = [
    ("CC(C)(C)c1cc(NC(=O)Nc2ccc(Nc3ncnc4c3OCCCN4)cc2)no1", "nM", 408),
]

* * *

biological target: Vascular endothelial growth factor receptor 3 (Homo sapiens); test: Inhibition of recombinant human FLT4 (800 to end residues) using GGEEEEYFELVKKKK as substrate incubated for 40 mins in presence of [gamma-33ATP] by scintillation counting based radiometry assay
Sequence (P35916 whole entry): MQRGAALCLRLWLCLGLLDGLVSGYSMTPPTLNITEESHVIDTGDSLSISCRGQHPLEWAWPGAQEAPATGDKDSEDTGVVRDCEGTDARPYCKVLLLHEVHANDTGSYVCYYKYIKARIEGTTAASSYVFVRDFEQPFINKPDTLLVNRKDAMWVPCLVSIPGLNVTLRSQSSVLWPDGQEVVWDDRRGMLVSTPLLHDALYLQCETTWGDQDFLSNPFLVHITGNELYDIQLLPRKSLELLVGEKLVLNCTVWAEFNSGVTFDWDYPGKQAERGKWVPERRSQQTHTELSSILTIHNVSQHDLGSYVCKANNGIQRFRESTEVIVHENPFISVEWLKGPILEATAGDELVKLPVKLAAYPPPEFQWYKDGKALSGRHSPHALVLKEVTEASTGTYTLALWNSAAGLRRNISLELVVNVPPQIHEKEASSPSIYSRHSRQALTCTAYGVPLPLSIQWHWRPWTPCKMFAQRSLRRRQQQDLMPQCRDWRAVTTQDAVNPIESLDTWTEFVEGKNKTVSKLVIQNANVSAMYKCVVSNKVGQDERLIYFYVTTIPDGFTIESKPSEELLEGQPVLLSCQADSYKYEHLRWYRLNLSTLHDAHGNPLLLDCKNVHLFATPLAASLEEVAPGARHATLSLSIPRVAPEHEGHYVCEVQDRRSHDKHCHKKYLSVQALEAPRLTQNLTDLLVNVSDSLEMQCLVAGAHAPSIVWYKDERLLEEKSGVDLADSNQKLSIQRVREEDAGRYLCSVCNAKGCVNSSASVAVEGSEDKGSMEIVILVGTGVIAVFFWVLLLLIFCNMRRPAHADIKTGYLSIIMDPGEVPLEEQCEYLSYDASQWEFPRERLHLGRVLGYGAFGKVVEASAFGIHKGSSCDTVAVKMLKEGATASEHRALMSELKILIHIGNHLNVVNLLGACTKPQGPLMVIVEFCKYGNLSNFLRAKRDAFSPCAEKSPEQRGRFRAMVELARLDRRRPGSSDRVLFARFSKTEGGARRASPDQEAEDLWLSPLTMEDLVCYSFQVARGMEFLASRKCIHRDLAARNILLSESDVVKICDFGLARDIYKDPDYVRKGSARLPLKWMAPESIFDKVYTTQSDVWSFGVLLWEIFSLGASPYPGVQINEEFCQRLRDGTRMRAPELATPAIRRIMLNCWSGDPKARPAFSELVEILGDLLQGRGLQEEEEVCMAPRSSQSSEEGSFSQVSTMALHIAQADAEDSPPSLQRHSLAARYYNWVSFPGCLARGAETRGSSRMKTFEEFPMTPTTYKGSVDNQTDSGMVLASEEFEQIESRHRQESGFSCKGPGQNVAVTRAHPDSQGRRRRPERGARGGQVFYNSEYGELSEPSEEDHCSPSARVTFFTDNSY

# sampleSmiles, IC50
data = [
    ("CC(C)(C)c1cc(NC(=O)Nc2ccc(Nc3ncnc4c3OCCCN4)cc2)no1", "6 nM"),
]

* * *

target: Serine/threonine-protein kinase B-raf (Homo sapiens); assay: Inhibition of recombinant full length human B-Raf (416 to end residues) using myelin basic protein substrate incubated for 40 mins in presence of [gamma-33ATP] by scintillation counting based radiometry assay
Sequence (P15056 whole entry): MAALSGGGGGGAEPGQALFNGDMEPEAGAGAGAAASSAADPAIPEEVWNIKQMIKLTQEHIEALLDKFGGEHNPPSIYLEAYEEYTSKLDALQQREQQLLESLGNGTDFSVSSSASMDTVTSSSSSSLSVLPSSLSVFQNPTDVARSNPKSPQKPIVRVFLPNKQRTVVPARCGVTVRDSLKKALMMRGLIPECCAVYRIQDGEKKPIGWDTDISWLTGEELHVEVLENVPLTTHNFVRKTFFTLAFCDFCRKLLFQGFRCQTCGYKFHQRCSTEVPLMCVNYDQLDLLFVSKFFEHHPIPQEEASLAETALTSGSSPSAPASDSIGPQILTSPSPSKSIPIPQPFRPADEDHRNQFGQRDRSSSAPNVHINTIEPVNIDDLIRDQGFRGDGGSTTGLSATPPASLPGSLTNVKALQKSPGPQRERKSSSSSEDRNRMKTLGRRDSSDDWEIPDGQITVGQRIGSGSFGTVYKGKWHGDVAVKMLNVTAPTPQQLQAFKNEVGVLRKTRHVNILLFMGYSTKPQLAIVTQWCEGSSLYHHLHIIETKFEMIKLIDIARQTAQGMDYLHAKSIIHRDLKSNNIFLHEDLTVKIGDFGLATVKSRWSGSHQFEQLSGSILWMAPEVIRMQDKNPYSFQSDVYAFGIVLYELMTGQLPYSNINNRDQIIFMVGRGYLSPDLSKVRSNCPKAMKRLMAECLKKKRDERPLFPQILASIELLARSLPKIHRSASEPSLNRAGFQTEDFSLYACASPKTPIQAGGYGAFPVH
pIC50: −log10 of the molar value.

# sampleSmiles, targetUnderTest, pIC50
measured = [
    ("CC(C)(C)c1cc(NC(=O)Nc2ccc(Nc3ncnc4c3OCCCN4)cc2)no1", "Serine/threonine-protein kinase B-raf (Homo sapiens)", 6.02),
]

* * *

biological target: Tyrosine-protein kinase Blk (Homo sapiens); assay: Inhibition of recombinant full length human BLK using poly(Glu, Tyr) 4:1 as substrate incubated for 40 mins in presence of [gamma-33ATP] by scintillation counting based radiometry assay
Sequence (P51451 whole entry): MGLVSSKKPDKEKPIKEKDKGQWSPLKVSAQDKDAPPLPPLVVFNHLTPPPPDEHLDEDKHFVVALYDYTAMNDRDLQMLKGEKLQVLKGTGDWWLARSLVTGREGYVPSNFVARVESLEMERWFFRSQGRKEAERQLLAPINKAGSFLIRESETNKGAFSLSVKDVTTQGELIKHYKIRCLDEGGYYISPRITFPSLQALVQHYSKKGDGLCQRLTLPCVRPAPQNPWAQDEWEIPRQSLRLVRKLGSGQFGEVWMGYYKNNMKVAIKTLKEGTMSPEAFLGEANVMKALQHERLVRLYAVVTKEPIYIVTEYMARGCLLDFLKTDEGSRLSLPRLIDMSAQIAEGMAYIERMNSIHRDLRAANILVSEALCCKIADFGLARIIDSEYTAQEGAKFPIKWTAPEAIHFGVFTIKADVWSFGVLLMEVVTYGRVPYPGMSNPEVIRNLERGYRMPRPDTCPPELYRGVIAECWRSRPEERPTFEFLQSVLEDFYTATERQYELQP
pIC50: −log10 of the molar value.

# sampleSmiles, targetUnderTest, pIC50
data = [
    ("CC(C)(C)c1cc(NC(=O)Nc2ccc(Nc3ncnc4c3OCCCN4)cc2)no1", "Tyrosine-protein kinase Blk (Homo sapiens)", 5.72),
]

* * *

target: UniProt:P07948; assay: Inhibition of recombinant human Lyn using poly(Glu, Tyr) 4:1 as substrate after 40 mins in presence of [gamma-33ATP] by scintillation counting based radiometry assay
pIC50: −log10 of the molar value.
outcomeMeasure: pIC50

# sampleSmiles, outcomeMeasure, numericResult
data = [
    ("CC(C)(C)c1cc(NC(=O)Nc2ccc(Nc3ncnc4c3OCCCN4)cc2)no1", "pIC50", 6.91),
]
